All figures here come from patent US4208520A.

- Test system: E. coli 9637
- procedure summary: In vitro antibacterial activity (minimal inhibitory concentration, agar dilution)
- Assay type: cell-based
- condition context: Escherichia coli; E. coli 9637; Wellcotest Sensitivity Test Agar with 5% hemolyzed horse blood, 18 hours at 35° C.; read-out: MIC
recorded metric: MIC (µg/mL)
Numbers only, in µg/mL.

The cases that follow already have their MIC on record.
- compound: "COC(=O)c1cccc(Cn2ccc3c4c(N)nc(N)nc4ccc32)c1 [Example 4]"
  MIC [µg/mL]: 1.95
- compound: "Nc1nc(N)c2c(ccc3c2ccn3Cc2ccc(Cl)cc2Cl)n1 [Example 2]"
  MIC [µg/mL]: 3.9
- compound: "CC(C)OC(=O)c1ccc(Cn2ccc3c4c(N)nc(N)nc4ccc32)cc1 [Example 6]"
  MIC [µg/mL]: 15.6
- compound: "Cc1ccnc(-n2ccc3c4c(N)nc(N)nc4ccc32)c1 [Example 11]"
  MIC [µg/mL]: 3.9
- compound: "CC(=O)c1cccc(Cn2ccc3c4c(N)nc(N)nc4ccc32)c1 [Example 3]"
  MIC [µg/mL]: 0.244

# next compound below
Give the reported MIC for Nc1nc(N)c2c(ccc3c2ccn3-c2ccncc2)n1 [Example 10] (system: E. coli 9637).
0.244
